Taken from the METLIN SMRT retention time set (Domingo-Almenara et al. 2019).

RP-LC retention time overview
Assay: gradient 5% acetonitrile 3 min, to 50% in 2 min, to 85% in 15 min, held 3 min, 100 µL/min
Details: column: Zorbax Extend-C18 2.1 x 50 mm; eluents: water / acetonitrile, 0.1% formic acid
Form field: result (number plus unit)

- COMPOUND: "O=C(Nc1ccc(OCc2nnc(-c3ccccc3)o2)cc1)c1ccc(Cl)nc1"
  RP-LC retention time: "898 s"

get_value(item= `Cc1ccc(NC(=O)c2cn(-c3cc(N4CCCC4)ncn3)cn2)c(C)c1` , readout=RP-LC retention time) returns 961 s

get_value(item= `CCOC(=O)c1ccc(Nc2c(-c3ccc(OC)cc3)nc3cnccn23)cc1` , readout=RP-LC retention time) returns 641 s

get_value(item= `CCN1CCCn2cc(S(=O)(=O)Nc3cccc(Cl)c3)cc2C1=O` , readout=RP-LC retention time) returns 770 s

get_value(item= CC(C)(C)C(=O)NCCN1C(=O)C2(CCCCC2)C1c1ccccc1 (stereo not drawn) , readout=RP-LC retention time) returns 903 s

get_value(item= `CCN1CCN(C(=O)Nc2ccc(Br)cc2F)c2cccnc21` , readout=RP-LC retention time) returns 659 s

get_value(item= O=C(NCC1CCCO1)c1nc(-c2ccc(N3CCCC3)cc2)no1 (stereo not drawn) , readout=RP-LC retention time) returns 982 s

get_value(item= `CC(=O)N1CCN(Cc2nc(-c3ccc(N4CCSCC4)nc3)no2)CC1` , readout=RP-LC retention time) returns 669 s

get_value(item= `CC#C[C@@H](CC(=O)O)c1ccc(OCc2ccc(CN3CCC4(C=Cc5ccccc54)CC3)s2)cc1` , readout=RP-LC retention time) returns 915 s

get_value(item= `COc1ccc(-c2cc(-c3nc4c5sc6nc(C)cc(C)c6c5ncn4n3)[nH]n2)cc1` , readout=RP-LC retention time) returns 1010 s

get_value(item= CCc1nc2ccccc2n1CC(O)COc1cc(C)c(Cl)c(C)c1 (stereo not drawn) , readout=RP-LC retention time) returns 770 s

get_value(item= O=C(NCc1cc(F)cc(F)c1)C1CCN(C(=O)c2ncn3c2COC(c2ccc(F)cc2)C3)CC1 (stereo not drawn) , readout=RP-LC retention time) returns 802 s

* * *

Assay: gradient 5% acetonitrile 3 min, to 50% in 2 min, to 85% in 15 min, held 3 min, 100 µL/min
Conditions: column: Zorbax Extend-C18 2.1 x 50 mm; eluents: water / acetonitrile, 0.1% formic acid
RP-LC retention time strictly less than 800 s = rule met. Otherwise rule not met.

Worked cases, answers included:
- COMPOUND: "O=C(NCCCN1CCCC1=O)C1c2ccccc2CC(=O)N1Cc1ccccc1 (centres undefined)"
  QUALITATIVE LABEL: "rule met"
- COMPOUND: "CCC(C)NC(=O)c1cn(-c2ccc(-c3nc(C(C)C)no3)cn2)cn1 (centres undefined)"
  QUALITATIVE LABEL: "rule not met"
- COMPOUND: "Cc1c(N2CCC(C(=O)NCC3CCCO3)CC2)c(=O)n(CC(C)C)c(=O)n1-c1ccccc1 (centres undefined)"
  QUALITATIVE LABEL: "rule not met"
- COMPOUND: "CC(=O)NCc1ccc(-c2noc(Cc3c(F)cccc3Cl)n2)s1"
  QUALITATIVE LABEL: "rule not met"
- COMPOUND: "CCN1CCN(c2nc3cc(C(=O)OC)ccc3c(=O)n2-c2cccc(Cl)c2)CC1"
  QUALITATIVE LABEL: "rule met"

Would you kindly verify if RP-LC retention time of `Cc1nc(-c2noc(-c3ccc(F)cc3)n2)cn1CC(=O)Nc1ccc2c(c1)CCC2` is strictly less than 800 s?
rule not met

Would you kindly verify if RP-LC retention time of `Cc1ccc2cc(CCC(=O)NCCCN3CCc4ccccc4C3)c(=O)[nH]c2c1` is strictly less than 800 s?
rule met

Would you kindly verify if RP-LC retention time of CC(C)CCNC(=O)C1(C)Cn2nc(C(=O)NCCc3ccc(Cl)cc3)cc2C(=O)N1C (centres undefined) is strictly less than 800 s?
rule not met

Would you kindly verify if RP-LC retention time of `Cc1cc(C)c(S(=O)(=O)N2CCC(c3noc(-c4ccccc4C)n3)CC2)c(C)c1` is strictly less than 800 s?
rule not met
